Recorded MIC (μg/mL) Saccharomyces cerevisiae AR 399 values for a group of substances are listed next.
Test system: Saccharomyces cerevisiae AR 399
Experiment: MIC, YPD broth, CDC and FDA AR Candida isolate panel
Type: cell-based
Details: Table 9 below the line: only 200 or 100 μg/mL tested; values reported as 100 are ≤100 μg/mL
Ends that are not written are not given here.

Known results for substances:
>  <substance>
TVGGLVKWILDVVKKFA [STIP3-9, TVGGLVKWILDVVKKFA]

>  <tested-system>
Saccharomyces cerevisiae AR 399

>  <result>
≤ 100 µg/mL

$$$$
>  <substance>
TVGGLVKWILNTVKKFA [STIP3-4, TVGGLVKWILNTVKKFA]

>  <tested-system>
Saccharomyces cerevisiae AR 399

>  <result>
≤ 100 µg/mL

$$$$
>  <substance>
TVGGLVKWILKAVKKFA [STIP3-13, TVGGLVKWILKAVKKFA]

>  <tested-system>
Saccharomyces cerevisiae AR 399

>  <result>
≤ 100 µg/mL

$$$$
>  <substance>
TVGGLVKWILKTVKKFA [STIP3-3, TVGGLVKWILKTVKKFA]

>  <tested-system>
Saccharomyces cerevisiae AR 399

>  <result>
≤ 100 µg/mL

$$$$

Asked: // lookup MIC (μg/mL) Saccharomyces cerevisiae AR 399 for TVRALVRWILRTVARFA [STIP3-23, TVRALVRWILRTVARFA]
Given back: ≤ 100 µg/mL

Asked: What do we get for TVGGLVKWILDTVKKFW [STIP3-6, TVGGLVKWILDTVKKFW] ?
Given back: ≤ 100 µg/mL
